target_under_test: His6 tagged human recombinant FABP4 (Homo sapiens)
Construct: purchased Cayman Chemicals 10009549
Sequence (P15090 whole entry): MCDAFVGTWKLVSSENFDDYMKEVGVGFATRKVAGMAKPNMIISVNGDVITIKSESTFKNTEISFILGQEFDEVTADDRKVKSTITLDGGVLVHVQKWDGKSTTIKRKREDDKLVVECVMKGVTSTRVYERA
measurement_protocol: FABP4 TR-FRET assay: displacement of fluorescent fatty acid BODIPY FL C12
reported_conditions: inhibition of BODIPY FL C12 binding to His6-FABP4; 1.2 μL of 1.085 mM compound in DMSO per well; triplicates, mean percent inhibition
Mark YES for reported inhibition at 1085 µM (stock) of 40% or greater; mark NO for anything smaller.

INPUT: Is it the case that `CN(CC(=O)O)c1cc(-c2ccccc2)c2cc(CCN3CCc4ccccc4C3)ccc2n1` has inhibition at 1085 µM (stock) reaching or exceeding 40%?
OUTPUT: NO

INPUT: Is it the case that `CN(CC(=O)O)c1cc(-c2ccc(F)cc2)c2cc(-c3ccc(F)cc3)ccc2n1` has inhibition at 1085 µM (stock) reaching or exceeding 40%?
OUTPUT: YES

INPUT: Is it the case that CCCCc1ccc2nc(N3CCCC(C(=O)O)C3)cc(-c3cccc(C#N)c3)c2c1 (centres unmarked) has inhibition at 1085 µM (stock) reaching or exceeding 40%?
OUTPUT: NO

INPUT: Is it the case that `O=C(O)COc1cc(-c2ccccc2)c2cc(Br)ccc2n1` has inhibition at 1085 µM (stock) reaching or exceeding 40%?
OUTPUT: NO

INPUT: Is it the case that `CCCCCc1ccc2nc(OCC(=O)O)cc(-c3cccc(C(N)=O)c3)c2c1` has inhibition at 1085 µM (stock) reaching or exceeding 40%?
OUTPUT: YES

###

target_under_test: His6 tagged human recombinant FABP4 (Homo sapiens)
Construct: purchased Cayman Chemicals 10009549
measurement_protocol: FABP4 TR-FRET assay: displacement of fluorescent fatty acid BODIPY FL C12
reported_conditions: inhibition of BODIPY FL C12 binding to His6-FABP4; 1.2 μL of 1.085 mM compound in DMSO per well; triplicates, mean percent inhibition
readout_kind: inhibition at 1085 µM (stock) (%)
Use % as the unit, but write only the number.

INPUT: Identify measured inhibition at 1085 µM (stock) corresponding to `CN(CC(=O)O)c1cc(-c2cccc(C#N)c2)c2cc(Br)ccc2n1`
OUTPUT: 91.1

INPUT: Identify measured inhibition at 1085 µM (stock) corresponding to CCCCc1ccc2nc(N(C)CC(C)C(=O)O)cc(-c3ccccc3)c2c1 (stereo not shown)
OUTPUT: 74.7

INPUT: Identify measured inhibition at 1085 µM (stock) corresponding to `CCCc1ccc2nc(N(C)CC(=O)O)cc(-c3cccc(C(N)=O)c3)c2c1`
OUTPUT: 48

INPUT: Identify measured inhibition at 1085 µM (stock) corresponding to `CCCCCCCc1ccc2nc(N(C)CC(=O)O)cc(-c3ccc(F)cc3)c2c1`
OUTPUT: 75.6

INPUT: Identify measured inhibition at 1085 µM (stock) corresponding to CCCCc1ccc2nc(N3CCCC(C(=O)O)C3)cc(-c3ccccc3)c2c1 (stereo not shown)
OUTPUT: 98.1

INPUT: Identify measured inhibition at 1085 µM (stock) corresponding to `CCc1ccc2nc(N(C)CC(=O)O)cc(-c3cccc(C#N)c3)c2c1`
OUTPUT: 50.8

INPUT: Identify measured inhibition at 1085 µM (stock) corresponding to `CN(CC(=O)O)c1cc(-c2ccncc2)c2cc(CCc3ccccn3)ccc2n1`
OUTPUT: 16.1

INPUT: Identify measured inhibition at 1085 µM (stock) corresponding to `CCCCc1ccc2nc(N(C)CC(=O)O)cc(-c3ccc(O)cc3)c2c1`
OUTPUT: 60.5

INPUT: Identify measured inhibition at 1085 µM (stock) corresponding to `CCCCc1ccc2nc(N(C)CC(=O)O)cc(-c3ccccc3F)c2c1`
OUTPUT: 67

INPUT: Identify measured inhibition at 1085 µM (stock) corresponding to `CCCc1ccc2nc(N(C)CC(=O)O)cc(-c3ccccc3)c2c1`
OUTPUT: 104

INPUT: Identify measured inhibition at 1085 µM (stock) corresponding to `CCCCc1ccc2nc(N(C)CC(=O)O)cc(-c3cccc(O)c3)c2c1`
OUTPUT: 83.8

INPUT: Identify measured inhibition at 1085 µM (stock) corresponding to `CCN(CC)CCc1ccc2nc(N(C)CC(=O)O)cc(-c3ccccc3)c2c1`
OUTPUT: 5.17

INPUT: Identify measured inhibition at 1085 µM (stock) corresponding to CN(CC(=O)O)c1cc(-c2ccccc2)c2cc(CCC3CNc4ccccc4N3)ccc2n1 (stereo not shown)
OUTPUT: 14.9

INPUT: Identify measured inhibition at 1085 µM (stock) corresponding to CCCCCCc1ccc2nc(N(C)CC(C)C(=O)O)cc(-c3ccc(F)cc3)c2c1 (stereo not shown)
OUTPUT: 92.3

INPUT: Identify measured inhibition at 1085 µM (stock) corresponding to `CCCc1ccc2nc(N(C)CC(=O)O)cc(-c3cccc(C#N)c3)c2c1`
OUTPUT: 27.7

INPUT: Identify measured inhibition at 1085 µM (stock) corresponding to `CN(CC(=O)O)c1cc(-c2ccccc2)c2cc(CCCc3ccccc3)ccc2n1`
OUTPUT: 97

INPUT: Identify measured inhibition at 1085 µM (stock) corresponding to CCCCCCc1ccc2nc(N(C)CC(C)C(=O)O)cc(-c3cccc(C#N)c3)c2c1 (stereo not shown)
OUTPUT: 56.5

INPUT: Identify measured inhibition at 1085 µM (stock) corresponding to `CCCCCCc1ccc2nc(N3CCCCC3)cc(-c3ccccc3)c2c1`
OUTPUT: 46.3

INPUT: Identify measured inhibition at 1085 µM (stock) corresponding to `CCCCc1ccc2nc(N(C)CC(=O)O)cc(-c3ccc(C)cc3)c2c1`
OUTPUT: 30.8

INPUT: Identify measured inhibition at 1085 µM (stock) corresponding to CCCCCCc1ccc2nc(OC(C)C(=O)O)cc(-c3ccncc3)c2c1 (stereo not shown)
OUTPUT: 21

INPUT: Identify measured inhibition at 1085 µM (stock) corresponding to `CN(CC(=O)O)c1cc(-c2ccccc2)c2ccc(Br)cc2n1`
OUTPUT: 84.5

INPUT: Identify measured inhibition at 1085 µM (stock) corresponding to `CCCCc1ccc2nc(N3CCCCC3)cc(-c3ccccc3)c2c1`
OUTPUT: 56.5

INPUT: Identify measured inhibition at 1085 µM (stock) corresponding to `CCCCc1ccc2nc(N(C)CC(=O)O)cc(-c3ccc(C#N)cc3)c2c1`
OUTPUT: 16.8

INPUT: Identify measured inhibition at 1085 µM (stock) corresponding to `Cc1cccc(CCc2ccc3nc(N(C)CC(=O)O)cc(-c4ccccc4)c3c2)c1`
OUTPUT: 50.2

INPUT: Identify measured inhibition at 1085 µM (stock) corresponding to `NC(=O)c1cccc(-c2cc(OCC(=O)O)nc3ccc(Br)cc23)c1`
OUTPUT: 19.1

INPUT: Identify measured inhibition at 1085 µM (stock) corresponding to CCCCCCc1ccc2nc(N(C)C(C)CC(=O)O)cc(-c3cccc(C#N)c3)c2c1 (stereo not shown)
OUTPUT: 77.9

INPUT: Identify measured inhibition at 1085 µM (stock) corresponding to `CCCCCc1ccc2nc(N(C)CC(=O)O)cc(-c3ccccc3)c2c1`
OUTPUT: 90.5

INPUT: Identify measured inhibition at 1085 µM (stock) corresponding to `CCCCCCc1ccc2nc(N(C)CC(=O)O)c(C)c(-c3ccc(F)cc3)c2c1`
OUTPUT: 111

INPUT: Identify measured inhibition at 1085 µM (stock) corresponding to CC(C(=O)O)N(C)c1cc(-c2ccccc2)c2cc(Cl)ccc2n1 (stereo not shown)
OUTPUT: 97.4

INPUT: Identify measured inhibition at 1085 µM (stock) corresponding to `CN(CC(=O)O)c1cc(-c2cccc(C(N)=O)c2)c2cc(Br)ccc2n1`
OUTPUT: 93.8

INPUT: Identify measured inhibition at 1085 µM (stock) corresponding to `CN(CC(=O)O)c1cc(-c2ccccc2)c2cc(CCN3CCCC3)ccc2n1`
OUTPUT: 2.04

INPUT: Identify measured inhibition at 1085 µM (stock) corresponding to CCCCc1ccc2nc(OC(C)C(=O)O)cc(-c3cccc(C#N)c3)c2c1 (stereo not shown)
OUTPUT: 12.7

INPUT: Identify measured inhibition at 1085 µM (stock) corresponding to `CCCc1ccc2nc(OCC(=O)O)cc(-c3cccc(C#N)c3)c2c1`
OUTPUT: 34.8

INPUT: Identify measured inhibition at 1085 µM (stock) corresponding to CCCCCCc1ccc2nc(OC(C)C(=O)O)cc(-c3cccc(C#N)c3)c2c1 (stereo not shown)
OUTPUT: 3.3

INPUT: Identify measured inhibition at 1085 µM (stock) corresponding to `CCCCCOc1ccc2nc(N(C)CC(=O)O)cc(-c3ccccc3)c2c1`
OUTPUT: 102

INPUT: Identify measured inhibition at 1085 µM (stock) corresponding to CCCCc1ccc2nc(N3CCOC(C(=O)O)C3)cc(-c3ccccc3)c2c1 (stereo not shown)
OUTPUT: 21.1

INPUT: Identify measured inhibition at 1085 µM (stock) corresponding to `CCCCCCc1ccc2nc(N(C)CC(=O)O)cc(-c3cccnc3)c2c1`
OUTPUT: 71.3

INPUT: Identify measured inhibition at 1085 µM (stock) corresponding to `CCCCCCc1ccc2nc(N(C)CC(=O)O)cc(Oc3cccnc3)c2c1`
OUTPUT: 85

INPUT: Identify measured inhibition at 1085 µM (stock) corresponding to `CCCCCCc1ccc2nc(N(C)CC(=O)O)cc(N3CCC(F)(F)C3)c2c1`
OUTPUT: 50.5

INPUT: Identify measured inhibition at 1085 µM (stock) corresponding to `CCCCCCc1ccc2nc(N(CC)CC(=O)O)cc(-c3ccc(F)cc3)c2c1`
OUTPUT: 78.3

INPUT: Identify measured inhibition at 1085 µM (stock) corresponding to `CCCCCCc1ccc2nc(N(C)CC(=O)O)cc(Oc3cccc(F)c3)c2c1`
OUTPUT: 98.8

INPUT: Identify measured inhibition at 1085 µM (stock) corresponding to `COc1ccc(CCc2ccc3nc(N(C)CC(=O)O)cc(-c4ccccc4)c3c2)cc1`
OUTPUT: 15

INPUT: Identify measured inhibition at 1085 µM (stock) corresponding to `CCCCCCc1ccc2nc(N(C)CC(=O)O)cc(N3CCOCC3)c2c1`
OUTPUT: 26.5
